This collection of values is drawn from the Deep4Chem optical property database.

# testProtocol: solvent given as SMILES
# testConditions: in CCCCCC
Measured absorption maximum values are reported for all entries that follow.
reportedProperty: absorption maximum (nm)

> print(dat)
                                 smilescode  recordednumber
1                  CCN(CC)c1ccc(OC)c(C=O)c1             400
2  CN(C)c1ccc(C=C/C=C/C=C/c2ccc(C#N)cc2)cc1             412
3  O=C1c2cccc3c(-n4c5ccccc5c5ccccc54)ccc(c23)C(=O)N1c1ccccc1             403

* * *

# testProtocol: solvent given as SMILES
# testConditions: in Cc1ccccc1

smilesCode	unitInfo	absorption maximum
COC1=[N+]2C(=C(c3ccc(C)cc3)c3ccc(OC)n3[B-]2(F)F)C=C1	nm	517
CCCCCCCCN(CCCCCCCC)c1ccc(/C=C/c2ccc(C#Cc3ccc(-c4ccc(C#Cc5ccc(/C=C/c6ccc(N(CCCCCCCC)CCCCCCCC)cc6)cc5)cc4)cc3)cc2)cc1	nm	406
CCCCCCCCN1c2ccccc2Sc2cc(/C=C/c3ccc(N(c4ccc(/C=C/c5ccc6c(c5)Sc5ccccc5N6CCCCCCCC)cc4)c4ccc(/C=C/c5ccc(/C=C/c6ccc(N(c7ccc(/C=C/c8ccc(N(c9ccccc9)c9ccccc9)cc8)cc7)c7ccc(/C=C/c8ccc(N(c9ccccc9)c9ccccc9)cc8)cc7)cc6)c6nsnc56)cc4)cc3)ccc21	nm	533
Cc1cc(C)c(B(c2ccccc2N(c2ccccc2)c2ccccc2)c2c(C)cc(C)cc2C)c(C)c1	nm	415
CCCCCCCC(=O)Oc1ccc2c3cccc4c(OC(=O)CCCCCCC)ccc(c5cccc1c52)c43	nm	448
Nc1ccc(C#Cc2ccc3ccc4ccc(C#Cc5ccc(N)cc5)c5ccc2c3c45)cc1	nm	417
COc1ccc2c(c1)[nH]c1c3[nH]c4cc(OC)ccc4c3c3nsnc3c21	nm	425
